biological target: Human α4β2 (Homo sapiens, UniProt P17787+P43681); construct: expressed in transfected cells; obtained from Dr. Ron Lukas, Barrow Neurological Institute; experiment: Competition binding to receptors in membrane preparations, human α4β2 ([3H]-nicotine); settings: read-out: Human α4β2 Ki
Please respond with reported pKi for every item in the list.
Keep it numeric: pKi is minus log10 of the concentration in mol/L.

Query: Please give the documented pKi of CN[C@@H](C)C/C=C/c1cncc(O[C@@H]2CCN(C(=O)C(C)(C)C)C2)c1
Result: 7.77

Query: Please give the documented pKi of CN[C@@H](C)C/C=C/c1cncc(O[C@H]2CCN(C(=O)C(C)C)C2)c1
Result: 8.21

Query: Please give the documented pKi of CCCOC(=O)N1CC[C@H](Oc2cncc(/C=C/C[C@H](C)NC)c2)C1
Result: 8.11

Query: Please give the documented pKi of CN[C@@H](C)C/C=C/c1cncc(OC2CN(C(=O)OCCOC)C2)c1
Result: 8.02

Query: Please give the documented pKi of CCC(=O)N1CC(Oc2cncc(/C=C/C[C@H](C)NC)c2)C1
Result: 8.66

Query: Please give the documented pKi of CN[C@@H](C)C/C=C/c1cnc(Cl)c(O[C@@H]2CCN(C(=O)CC3CCCC3)C2)c1
Result: 8.12

Query: Please give the documented pKi of CN[C@@H](C)C/C=C/c1cnc(Cl)c(O[C@@H]2CCN(C(=O)C3CCC3)C2)c1
Result: 8.82

Query: Please give the documented pKi of CN[C@@H](C)C/C=C/c1cncc(O[C@H]2CCN(C(=O)OCCOC)C2)c1
Result: 7.28

Query: Please give the documented pKi of CN[C@@H](C)C/C=C/c1cncc(O[C@H]2CCN(C(=O)CCC(F)(F)F)C2)c1
Result: 7.96

Query: Please give the documented pKi of CCC(=O)N1CC[C@H](Oc2cncc(/C=C/C[C@H](C)NC)c2)C1
Result: 8.01

Query: Please give the documented pKi of CN[C@@H](C)C/C=C/c1cncc(O[C@H]2CCN(C(=O)CC3CCCC3)C2)c1
Result: 8.07

Query: Please give the documented pKi of CN[C@@H](C)C/C=C/c1cncc(O[C@H]2CCN(C(=O)C3CCOCC3)C2)c1
Result: 7.89

Query: Please give the documented pKi of CN[C@@H](C)C/C=C/c1cncc(O[C@@H]2CCN(C(=O)C(C)C)C2)c1
Result: 8.05

Query: Please give the documented pKi of CN[C@@H](C)C/C=C/c1cncc(O[C@H]2CCN(C(=O)COC)C2)c1
Result: 8.36

Query: Please give the documented pKi of CN[C@@H](C)C/C=C/c1cnc(Cl)c(O[C@@H]2CCN(C(=O)C3CCCC3)C2)c1
Result: 8.54

Query: Please give the documented pKi of CN[C@@H](C)C/C=C/c1cnc(Cl)c(O[C@H]2CCN(C(=O)C(C)C)C2)c1
Result: 7.89

Query: Please give the documented pKi of CN[C@@H](C)C/C=C/c1cncc(O[C@H]2CCN(C(=O)C3CC3)C2)c1
Result: 7.85

Query: Please give the documented pKi of CN[C@@H](C)C/C=C/c1cncc(O[C@H]2CCN(C(=O)C(C)(C)C)C2)c1
Result: 8.12

Query: Please give the documented pKi of CCC(=O)N1CC[C@@H](Oc2cncc(/C=C/C[C@H](C)NC)c2)C1
Result: 8.72

Query: Please give the documented pKi of CN[C@@H](C)C/C=C/c1cncc(O[C@@H]2CCN(C(=O)C3CC3)C2)c1
Result: 8.29

Query: Please give the documented pKi of CN[C@@H](C)C/C=C/c1cncc(O[C@H]2CCN(C(=O)CC(F)(F)F)C2)c1
Result: 8.52

Query: Please give the documented pKi of CN[C@@H](C)C/C=C/c1cncc(O[C@@H]2CCN(C(=O)OCCOC)C2)c1
Result: 8.18

Query: Please give the documented pKi of CN[C@@H](C)C/C=C/c1cnc(Cl)c(O[C@@H]2CCN(C(=O)c3ccc(F)cc3)C2)c1
Result: 8.48
